Target: CYP1A2 (Homo sapiens, UniProt P05177)
Sequence (P05177 1-516): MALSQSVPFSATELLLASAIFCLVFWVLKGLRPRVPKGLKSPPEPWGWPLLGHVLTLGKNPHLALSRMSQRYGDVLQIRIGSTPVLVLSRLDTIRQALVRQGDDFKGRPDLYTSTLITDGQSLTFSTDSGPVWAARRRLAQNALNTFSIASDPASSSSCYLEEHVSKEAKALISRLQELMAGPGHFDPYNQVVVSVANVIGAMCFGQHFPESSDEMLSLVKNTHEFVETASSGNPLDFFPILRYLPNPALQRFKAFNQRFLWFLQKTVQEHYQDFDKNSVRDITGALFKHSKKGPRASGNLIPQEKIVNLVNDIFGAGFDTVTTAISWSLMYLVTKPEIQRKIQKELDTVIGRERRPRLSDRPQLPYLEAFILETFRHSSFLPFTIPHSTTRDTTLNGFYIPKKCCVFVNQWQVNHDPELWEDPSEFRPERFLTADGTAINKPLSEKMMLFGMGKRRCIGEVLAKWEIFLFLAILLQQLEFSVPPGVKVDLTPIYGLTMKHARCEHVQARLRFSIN
Assay: Reversible CYP inhibition in human liver microsomes
Conditions: human, microsomes, pH 7.4, Percent of Control Activity, CYP 1A2, 0.1 µM, Zero-Minute Preincubation
Recorded Metric: activity at 0.1 µM (%)
Enter your answer as a number in %; do not include the unit.

// returns reported activity at 0.1 µM for input COc1cccc2[nH]c(C(=O)N[C@@H](CC(C)C)C(=O)N[C@@H](C[C@@H]3CCNC3=O)C(=O)CO)cc12
97.8
